FYI, the data here is from the supplement of paper PMC10126150.

tested on: ATP; test: switch fluorescence ratio, 500 uM ATP over buffer (Cy3 cluster intensity, sum of 5 cycles each) (fold (ratio)); higher = stronger signal-on switching upon ATP binding; sequences stand for … in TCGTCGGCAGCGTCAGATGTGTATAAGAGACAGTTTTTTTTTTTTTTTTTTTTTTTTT…TC; conditions: aptamer strand: ATP DNA aptamer (quencher-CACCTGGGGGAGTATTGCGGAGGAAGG + anchor), 100 nM annealed; ATP concentration: 500 uM;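 note: ATP exposure 15 min at 22 °C before imaging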
# switch fluorescence ratio per record follows
I'd appreciate a reply containing only the number, no unit.

- AAGCATGCTC: 1.09
- CGGGGTAGCT: 0.989
- CAAATTTGGG: 1.02
- AGTTCTTGGC: 1.02
- TGTTTGTGAG: 1
- GATAGGGGCT: 0.938
- TTCGATGGGG: 0.993
- CACGGTGGCT: 1.01
- GCGGATTCGG: 0.955
- GGAGGGATAG: 1.26

Noted for `ACATATAGGG` : its switch fluorescence ratio reads 1.04

Documented switch fluorescence ratio of `CGTGGAGCGA` : 1.04

For reference, reported switch fluorescence ratio for `GGGGAACACT` stands at 1.01

Just so you know, measured switch fluorescence ratio for `CAGTCAGGGC` came out at 1.26

Briefly, switch fluorescence ratio measured for `CCAGAGGGTT` : 1.03
